- TGT: T1, rat serum albumin (rat), P02770
- T1 chain: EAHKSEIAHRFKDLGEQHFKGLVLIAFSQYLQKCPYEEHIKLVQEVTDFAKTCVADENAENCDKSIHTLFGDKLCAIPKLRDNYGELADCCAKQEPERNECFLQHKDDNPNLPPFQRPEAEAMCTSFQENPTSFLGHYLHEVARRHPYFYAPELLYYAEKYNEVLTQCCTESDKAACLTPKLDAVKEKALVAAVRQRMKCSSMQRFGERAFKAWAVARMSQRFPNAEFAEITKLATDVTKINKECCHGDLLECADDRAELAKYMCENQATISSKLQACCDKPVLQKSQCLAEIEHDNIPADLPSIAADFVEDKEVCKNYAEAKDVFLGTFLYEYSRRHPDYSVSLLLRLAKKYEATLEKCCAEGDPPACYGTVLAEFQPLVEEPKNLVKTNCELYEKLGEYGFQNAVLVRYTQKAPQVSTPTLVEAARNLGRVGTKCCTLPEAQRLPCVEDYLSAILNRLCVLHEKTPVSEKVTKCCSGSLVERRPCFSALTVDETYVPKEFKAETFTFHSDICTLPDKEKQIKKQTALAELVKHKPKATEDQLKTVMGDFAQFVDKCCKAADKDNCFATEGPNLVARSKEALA
- TEST_PROTOCOL: peptide competition for albumin
pIC50: −log10 of the molar value.
OBSERVATION_TYPE: pIC50

binder="RLMEDICLARWGCLWEDD (modifications not checked) [SA13]" assay_value=5.61
